test system: SK-MEL-5 melanoma; assay: NCI tumour cell line growth inhibition, 48 h
quantity.measured: GI50

Example cases with answers are listed next.
[ask] Would you mind telling me what GI50 value was observed for CC1=NN(C(=O)c2nn(-c3ccc(Cl)cc3)cc2O)C(=O)C1 ?
[reply] 3450 nM

[ask] Would you mind telling me what GI50 value was observed for O=c1[nH]nc(-c2ccccc2)c2c(-c3ccccc3)onc12 ?
[reply] 352 nM

[ask] Would you mind telling me what GI50 value was observed for Cc1ccc(S(=O)(=O)Nc2cc(Sc3ccccc3)c(O)c3ccccc23)cc1 ?
[reply] 3570 nM

[ask] Would you mind telling me what GI50 value was observed for CCC(=O)c1c(C(F)(F)F)n([O-])c2ccccc2[n+]1=O ?
[reply] 961 nM

[ask] Would you mind telling me what GI50 value was observed for Nc1cc(-c2ccccc2)n(C(=O)Nc2ccc(Oc3ccccc3)cc2)n1 ?
[reply] > 100000 nM

[ask] Would you mind telling me what GI50 value was observed for C=C1C(=O)O[C@H]2[C@H]1CC/C(CNC(=O)/C=C/c1ccc(Cl)cc1Cl)=C\CC[C@@]1(C)O[C@@H]21 ?
[reply] 1630 nM

[ask] Would you mind telling me what GI50 value was observed for O=[N+]([O-])c1cc2c(ccc3occc32)o1 ?
[reply] 1170 nM

[ask] Would you mind telling me what GI50 value was observed for O=C(NN1C(=O)CSC12CCC(c1ccccc1)CC2)c1[nH]c2ccc(F)cc2c1-c1ccccc1 (stereo unspecified) ?
[reply] 17500 nM

[ask] Would you mind telling me what GI50 value was observed for O=C(CN1C(=O)S/C(=C\C(Cl)=C\c2ccccc2)C1=O)NCCCn1ccnc1 ?
[reply] 1680 nM

[ask] Would you mind telling me what GI50 value was observed for O=C1c2ccn(CCCCN(CCO)CCO)c2C(=O)c2c1c(O)c1ccccc1c2O ?
[reply] 13200 nM

Others:
[ask] Would you mind telling me what GI50 value was observed for Cc1ccc(-c2c3c(N)c4c(nc3nc3c2c(C)nn3-c2ccccc2)CCC4)cc1 ?
[reply] 1730 nM

[ask] Would you mind telling me what GI50 value was observed for COc1cc(NC(=O)c2cc(O)c(C/C=C(\C)CCC=C(C)C)c(O)c2)cc2c1O[C@]1(C)CC[C@@H](O)C(C)(C)[C@H]1C2 ?
[reply] 1340 nM

[ask] Would you mind telling me what GI50 value was observed for Cc1cn(Cc2ccccc2CCl)c(=O)n(Cc2ccccc2CCl)c1=O ?
[reply] 1560 nM

[ask] Would you mind telling me what GI50 value was observed for CN(C)N=Nc1nn(C(=O)Nc2ccc(Cc3ccccc3)cc2)c2ccccc12 ?
[reply] 122 nM

[ask] Would you mind telling me what GI50 value was observed for O=C1COCCN1c1ccc(NCc2cn(C(=O)c3ccc(Cl)cc3)c3ccccc23)cc1 ?
[reply] 4100 nM

[ask] Would you mind telling me what GI50 value was observed for CN(C)c1ncnc2c1ccn2C1OC(CO)C(O)C1O (stereo unspecified) ?
[reply] > 100000 nM

###

tested on: KM12 colon; experiment: NCI tumour cell line growth inhibition, 48 h; in the data active = GI50 below about 0.43 µM; inactive = the rest
Lab note: assign the record to one of 1 (yes) = active, 0 (no) = inactive

[ask] Short answer needed: outcome of this test for Cc1c(C(N)=O)sc2c1c(=O)n(Cc1ccccc1)c1nnc(S(=O)(=O)CC(=O)Nc3ccc(Cl)cc3)n21 ?
[reply] 0 (no)

Turning to the following compound.
[ask] Short answer needed: outcome of this test for CC(=O)n1c(-c2ccc(Cl)c(Cl)c2)cn(-c2ccc(Cl)cc2)c1=O ?
[reply] 0 (no)
